Data origin, for the record: ChEMBL document CHEMBL5329212

- assay: Aqueous solubility of the compound at pH 7.4 at 0.1 to 10 mg
- Assay type: physicochemical
- setup conditions: aqueous medium, dose 0.1-10 mg
readout label: solubility (µg/mL)
Answers are plain numbers, in µg/mL.

Query string: Read off the recorded solubility for Cc1cc(C#N)cc(C)c1Oc1nc(Nc2ccc(-c3cn(S(=O)(=O)n4ccnc4)nn3)cc2)nc2ccsc12
Result string: 44.2

====

- assay: Cytotoxicity against human MT4 cells assessed as reduction in cell viability measured after 5 days by MTT assay
- Format: toxicity, cell-based
- setup conditions: time 5 day
readout label: CC50 at 120 h

{"molecule": "Cc1cc(C#N)cc(C)c1Oc1nc(Nc2ccc(-c3cn(Cc4ccc(C(F)(F)F)cc4)nn3)cc2)nc2ccsc12", "reported measurement": "88.2 µM"}

Give measured CC50 at 120 h for every item shown.
1. O=C1Nc2ccc(Cl)cc2[C@@](C#CC2CC2)(C(F)(F)F)O1 [EFAVIRENZ]
2. Cc1cc(C#N)cc(C)c1Oc1nc(Nc2ccc(C#N)cc2)nc(N)c1Br [ETRAVIRINE]

Result string:
1. > 635 µM
2. > 461 µM

Query string: Read off the recorded CC50 at 120 h for Cc1cc(C#N)cc(C)c1Oc1nc(Nc2ccc(-c3cn(Cc4ccc(S(N)(=O)=O)cc4)nn3)cc2)nc2ccsc12
Result string: > 205 µM
